# Tested on: Digitaria sanguinalis (DIGSA)
# experimentalDetails: Post-emergence efficacy, Method A
# Assay type: in vivo
# assaySetup: Digitaria sanguinalis, post-emergence, 312 h; Application rate 500 g/Ha; evaluated after 13 days; 100=total damage to plant, 0=no damage to plant; read-out: Control of weed species after post-emergence application, DIGSA
Please go through the items and note down their pest or weed control at 500 g/ha.
Numbers only, in %.

Below, each entry is followed by its recorded pest or weed control at 500 g/ha result.
- O=S(=O)([O-])CC[n+]1ccc(-c2cc(C(F)(F)F)ncn2)cn1: 50
- N#Cc1ccnc(-c2cc[n+](CCCS(=O)(=O)[O-])nc2)n1: 20
- Cc1cc(Cl)cnc1-c1cc[n+](CCCS(=O)(=O)[O-])nc1: 10

// input: 4 compounds below; output: pest or weed control at 500 g/ha for each
1. Cc1cccnc1-c1cc[n+](CCC(=O)[O-])nc1
2. O=C(O)CC[n+]1ccc(-c2ccc(C(F)(F)F)nn2)cn1
3. O=C(O)CC[n+]1ccc(-c2ccnc(C(F)(F)F)n2)cn1
4. O=S(=O)([O-])CCC[n+]1ccc(-c2cncc(Cl)n2)cn1

Response:
1: 30; 2: 80; 3: 90; 4: 50

// input: 4 compounds below; output: pest or weed control at 500 g/ha for each
1. O=C([O-])CC[n+]1ccc(-c2nccc(C(F)(F)F)n2)cn1
2. O=S(=O)([O-])CC[n+]1ccc(-c2nccc(C(F)(F)F)n2)cn1
3. Cc1ccnc(-c2cc[n+](CCS(=O)(=O)[O-])nc2)n1
4. O=S(=O)([O-])CC[n+]1ccc(-c2ncc(C3CC3)cn2)cn1

Response:
70
80
90
60

// input: 4 compounds below; output: pest or weed control at 500 g/ha for each
1. O=C([O-])CC[n+]1ccc(-c2ccc(F)cn2)cn1
2. CN(C)c1ccnc(-c2cc[n+](CCS(=O)(=O)[O-])nc2)n1
3. O=C(O)CC[n+]1ccc(-c2ncc(F)cc2F)cn1
4. Cc1cc(=O)[nH]c(-c2cc[n+](CCS(=O)(=O)[O-])nc2)n1

Response:
1: 30; 2: 50; 3: 30; 4: 40

// input: 3 compounds below; output: pest or weed control at 500 g/ha for each
1. Cc1cc(C)nc(-c2cc[n+](CCS(=O)(=O)[O-])nc2)n1
2. O=c1cc(-c2cc[n+](CCCS(=O)(=O)[O-])nc2)nc[nH]1
3. O=S(=O)([O-])CC[n+]1ccc(-c2ncc(C(F)(F)F)cn2)cn1

Response:
90
30
40
